protocol notes: method code SF-AS, from DOI: 10.1002/ddr.430140205
measurement conditions: pH 7.4

compound: COc1ccc(CC2CNC(=O)C2)cc1OC (centres undefined)
logD: 0.58
//
compound: O=C1CCC(c2ccc(-n3ccnc3)cc2)=NN1
logD: 1
//
compound: CSc1ccc(C(=O)c2[nH]c(=O)[nH]c2C)cc1
logD: 1.55
//
compound: O=C1CCC(c2ccncc2)=NN1
logD: 0.18

* * *

protocol notes: method code SF-RC, from DOI: 10.1007/bf00263256, PMID: 6394334

structure: CC(=NO)C(C)(C)NCCCNC(C)(C)C(C)=NO
logP: 1.76

* * *

compound: CC(C)C[N+](=O)[O-]
logP: 1.4
--
compound: CCC(C)[N+](=O)[O-] (centres undefined)
logP: 1.2
--
compound: CC(C)[N+](=O)[O-]
logP: 0.8
--
compound: CCCCCC[N+](=O)[O-]
logP: 2.7

* * *

parameter: logP

structure: O=C1CC[C@@](c2ccccc2)(C2CCN(Cc3ccccc3)CC2)C(=O)N1
parameter: logP
result: 3.55

structure: CN(C)CCC=C1c2ccccc2CCc2c(Cl)cccc21
parameter: logP
result: 5.55

* * *

structure: CNC(N)=S
logP: -0.68

* * *

protocol notes: method code SF-RC, from DOI: 10.1016/0006-2952(81)90006-x, PMID: 6456004

structure: NCCc1ccccc1
logP: 1.16

* * *

protocol notes: method code SF-AS, from DOI: 10.1002/jps.2600650731
measurement conditions: pH 11.5

structure: CC/N=C(N)/N=C(\N)Nc1ccc(Cl)cc1
logD: 2.14

* * *

protocol notes: method code SF-HPLC, from DOI: 10.1002/jps.10112, PMID: 12115830
measurement conditions: pH 7.4

compound: CC(SSc1ncc[nH]1)c1ccccc1 (stereo unspecified)
logD: 3.39

* * *

protocol notes: method code SF, from DOI: 10.1016/j.bcp.2004.09.021, PMID: 15627482
measurement conditions: pH 7.0
# maps each entry to its logD

compound: CCCCC1(C(=O)OCC)C(CC)C(C)C=[N+]1[O-] (stereo not given)
logD: 1.01
//
compound: CCCCOC(=O)C1(CCCC)CCC=[N+]1[O-] (stereo not given)
logD: 1.75
//
compound: CCCCC1(C(=O)OC(C)C)CCC=[N+]1[O-] (stereo not given)
logD: 1.07
//
compound: CCCCC1(C(=O)OC(C)(C)C)CCC=[N+]1[O-] (stereo not given)
logD: 1.36
//
compound: CCCCC1(C(=O)OCC)CCC=[N+]1[O-] (stereo not given)
logD: 0.69

* * *

protocol notes: method code SF-AS, from DOI: 10.1021/jm00162a004, PMID: 3023612

structure: CCCC1(CCC)CCC=[N+]1[O-]
logP: 0.69

* * *

protocol notes: method code SF, from DOI: 10.1016/0360-3016(92)90876-j, PMID: 1735696
measurement conditions: pH 7.4
parameter: logD

structure: O=C(Cn1ccnc1[N+](=O)[O-])NCCO
parameter: logD
numeric result: -1.32
//
structure: CC(=O)O/N=C/Cn1ccnc1[N+](=O)[O-]
parameter: logD
numeric result: -0.47
//
structure: O=[N+]([O-])c1nccn1CC=NO
parameter: logD
numeric result: -0.43

* * *

Recorded logP values for a group of compounds are listed next.

structure: Cn1c(=O)nc(-c2ccccc2)c2cc(O)ccc21
logP: 1.72
--
structure: CCOCCOCCOc1ccc2c(c1)c(-c1ccccc1)nc(=O)n2C
logP: 1.84
--
structure: Cn1c(=O)nc(-c2ccccc2)c2ccccc21
logP: 1.79
